# Experimental target: UniProt:P11388
# Sequence (P11388 whole entry): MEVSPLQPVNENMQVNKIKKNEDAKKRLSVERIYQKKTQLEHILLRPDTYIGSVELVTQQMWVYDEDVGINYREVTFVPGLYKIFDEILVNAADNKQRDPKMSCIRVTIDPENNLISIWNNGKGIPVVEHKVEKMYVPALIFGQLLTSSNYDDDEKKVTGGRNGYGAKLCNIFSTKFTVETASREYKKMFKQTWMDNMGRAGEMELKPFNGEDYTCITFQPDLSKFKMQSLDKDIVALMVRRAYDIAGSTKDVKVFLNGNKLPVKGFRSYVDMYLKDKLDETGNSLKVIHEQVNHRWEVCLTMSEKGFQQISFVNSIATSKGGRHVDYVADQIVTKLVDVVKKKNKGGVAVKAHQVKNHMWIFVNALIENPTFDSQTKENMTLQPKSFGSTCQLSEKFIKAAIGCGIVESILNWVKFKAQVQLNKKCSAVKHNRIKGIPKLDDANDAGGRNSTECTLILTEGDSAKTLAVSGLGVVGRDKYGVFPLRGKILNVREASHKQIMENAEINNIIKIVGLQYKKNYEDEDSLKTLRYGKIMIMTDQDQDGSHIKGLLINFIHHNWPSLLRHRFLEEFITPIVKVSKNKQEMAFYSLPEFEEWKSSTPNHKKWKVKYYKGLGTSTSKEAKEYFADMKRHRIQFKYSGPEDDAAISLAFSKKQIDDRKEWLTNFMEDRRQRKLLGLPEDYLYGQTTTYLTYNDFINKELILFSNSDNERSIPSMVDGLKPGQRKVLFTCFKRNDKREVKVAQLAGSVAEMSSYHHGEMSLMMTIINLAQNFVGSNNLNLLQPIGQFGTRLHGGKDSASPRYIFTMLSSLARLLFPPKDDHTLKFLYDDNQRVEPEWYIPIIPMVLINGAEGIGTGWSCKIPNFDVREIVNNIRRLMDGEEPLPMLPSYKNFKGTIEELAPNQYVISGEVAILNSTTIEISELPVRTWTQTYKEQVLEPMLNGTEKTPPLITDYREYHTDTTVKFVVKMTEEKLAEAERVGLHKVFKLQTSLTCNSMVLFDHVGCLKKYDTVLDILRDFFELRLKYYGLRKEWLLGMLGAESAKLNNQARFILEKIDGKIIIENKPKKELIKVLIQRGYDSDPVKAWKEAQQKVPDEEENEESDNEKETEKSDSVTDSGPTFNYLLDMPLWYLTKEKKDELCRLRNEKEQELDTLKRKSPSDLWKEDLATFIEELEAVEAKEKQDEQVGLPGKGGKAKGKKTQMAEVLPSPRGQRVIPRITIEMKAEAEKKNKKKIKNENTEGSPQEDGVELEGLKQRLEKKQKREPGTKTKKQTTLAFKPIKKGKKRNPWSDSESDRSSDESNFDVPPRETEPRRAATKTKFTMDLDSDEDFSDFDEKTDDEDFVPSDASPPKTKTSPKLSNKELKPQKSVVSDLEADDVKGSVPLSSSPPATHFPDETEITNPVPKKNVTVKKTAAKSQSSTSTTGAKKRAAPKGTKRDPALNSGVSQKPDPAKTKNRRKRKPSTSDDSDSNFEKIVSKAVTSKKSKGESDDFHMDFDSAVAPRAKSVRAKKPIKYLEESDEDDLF
# Measurement protocol: Inhibition of recombinant human DNA topoisomerase-2alpha assessed as decrease in relaxation of supercoiled pBR322 DNA after 30 mins by ethidium bromide staining based agarose gel electrophoresis
Test readout: IC50 (µM)

Consider the worked cases shown below.
> print(dat)
                      smiles.representation  experimental.target  test.readout  unit.of.measure  measurement
1  Cc1cn([C@H]2C[C@H](Cc3ccc(O)c(O)c3)[C@@H](CO)O2)c(=O)[nH]c1=O       UniProt:P11388          IC50               µM          176
2  Cc1cn([C@H]2C[C@H](CC3=CC(=O)C(=O)C=C3)[C@@H](CO[Si](C)(C)C(C)(C)C)O2)c(=O)[nH]c1=O       UniProt:P11388          IC50               µM         2.43
3  COc1ccc(C2([C@H]3C[C@H](n4cc(C)c(=O)[nH]c4=O)O[C@@H]3CO)SCCCS2)cc1OC       UniProt:P11388          IC50               µM         64.5
4  COc1ccc(C2([C@H]3CC(=O)O[C@@H]3CO[Si](C)(C)C(C)(C)C)SCCCS2)cc1OC       UniProt:P11388          IC50               µM         55.7
5  COc1ccc(C[C@H]2C[C@H](n3cc(C)c(=O)[nH]c3=O)O[C@@H]2CO[Si](C)(C)C(C)(C)C)cc1OC       UniProt:P11388          IC50               µM         99.1

I = COc1ccc(C[C@H]2CC(=O)O[C@@H]2CO[Si](C)(C)C(C)(C)C)cc1OC
II = COc1ccc(C[C@H]2C[C@@H](n3cc(C)c(=O)[nH]c3=O)O[C@@H]2CO[Si](C)(C)C(C)(C)C)cc1OC
III = COc1ccc(C2([C@H]3C[C@H](n4cc(C)c(=O)[nH]c4=O)O[C@@H]3CO[Si](C)(C)C(C)(C)C)SCCCS2)cc1OC
IV = Cc1cn([C@H]2C[C@H](Cc3ccc(O)c(O)c3)[C@@H](CO[Si](C)(C)C(C)(C)C)O2)c(=O)[nH]c1=O
V = COc1ccc(C2([C@H]3C[C@@H](n4cc(C)c(=O)[nH]c4=O)O[C@@H]3CO[Si](C)(C)C(C)(C)C)SCCCS2)cc1OC
QUERY: Arrange by IC50, high to low. Answer by naming the labels in the order asked.
RESULT: I, II, IV, V, III
